assaySummary: In vivo pharmacokinetics in SD rats
settings: Sprague-Dawley, rat, in vivo; Intravenous injection - 1 mg/kg; read-out: t1/2 (converted)
Experimental: Compound stock solution preparation: an appropriate amount of solid powder of the compounds were weighed separately, a certain amount of DMSO was added and 20 mg/mL of stock solution was obtained under vortex ultrasound. […] The blood samples were centrifuged at 4° C. for 5 min at 2,000 g to separate the plasma. The plasma samples were analyzed by LC/MS/MS to detect the concentration of each test compound in the plasma samples. […]
valueType: half-life (h)
Return type: number; implicit unit h.

Task: What half-life value was documented for this molecule, `CNC(=O)c1ccc2c(cc1=O)[C@@H](NC(C)=O)CCc1cc3c(c(OC)c1-2)OCO3` ?
Result: 1.19

###

assaySummary: In vivo pharmacokinetics in SD rats
settings: Sprague-Dawley, rat, in vivo, iv, 1 mg/kg
clearance of 1 L/h/kg or higher: condition met. Under 1 L/h/kg: condition not met.

Please review the following examples before continuing.
{"molecule": "[2H]C([2H])([2H])Oc1cc2c(c(OC)c1OC([2H])([2H])[2H])-c1ccc(C(=O)NC)c(=O)cc1[C@@H](NC(C)=O)CC2 [Compound 124]", "classification": "condition met"}
{"molecule": "CNC(=O)c1ccc2c(cc1=O)[C@@H](NC(C)=O)CCc1cc(OC)c(OC)c(OC)c1-2 [Compound 48]", "classification": "condition met"}
{"molecule": "[2H]C([2H])([2H])Oc1c(OC)c(OC)cc2c1-c1ccc(C(=O)NC)c(=O)cc1[C@@H](NC(C)=O)CC2 [Compound 132]", "classification": "condition met"}
{"molecule": "CCNC(=O)c1ccc2c(cc1=O)[C@@H](NC(C)=O)CCc1cc(OC)c(OC)c(OC)c1-2 [Compound 55]", "classification": "condition met"}
{"molecule": "[2H]C([2H])([2H])NC(=O)c1ccc2c(cc1=O)[C@@H](NC(C)=O)CCc1cc(OC)c(OC)c(OC)c1-2 [Compound 56]", "classification": "condition met"}

Task: Is it the case that COc1cc2c(c(OC)c1OC)-c1ccc(C(=O)Nc3ccccc3)c(=O)cc1[C@@H](NC(C)=O)CC2 [Compound 58] has clearance reaching or exceeding 1 L/h/kg?
Result: condition not met

###

Recorded half-life by entry
assaySummary: In vivo pharmacokinetics in SD rats
settings: Sprague-Dawley, rat, plasma, po; Gavage - 10 mg/kg; read-out: t1/2 (converted)
The figure you give is taken to be in h; do not add the unit.

Field: example entries. Status: answers known.
{"chemicalString": "COc1cc2c(c(OC)c1OC)-c1ccc(C(=O)Nc3ccccc3)c(=O)cc1[C@@H](NC(C)=O)CC2", "half-life, h": 2.22}
{"chemicalString": "CNC(=O)c1ccc2c(cc1=O)[C@@H](NC(C)=O)CCc1cc(OC)c(OC)c(OC)c1-2", "half-life, h": 1.61}

Note: attention shifts to another entry.
Task: Look at this molecule and give its reported half-life. `CCNC(=O)c1ccc2c(cc1=O)[C@@H](NC(C)=O)CCc1cc(OC)c(OC)c(OC)c1-2`
Result: 2.02

###

Tested on: gouty arthritis in rats (urate crystals, left ankle joint)
assaySummary: Pharmacodynamics experiment A on gouty arthritis in rats: gait score
Format: in vivo, SD rats
Parameters: scale not given here
settings: 8 h after modeling; 0.6 mg/kg gavage; Mean ± SEM
valueType: Gait Score
The answer should be a number; do not append a unit.

// worked examples, Gait Score included
{"compound": "COc1cc2c(c(OC)c1OC)-c1cc(C)c(=O)c(OC)cc1[C@@H](NC(C)=O)CC2", "Gait Score": 1.00}
{"compound": "COc1cc2c(c(OC)c1OC)-c1ccc(NS(C)(=O)=O)c(=O)cc1[C@@H](NC(C)=O)CC2", "Gait Score": 1.10}
{"compound": "COc1cc2c(c(OC)c1OC)-c1ccc(OC3CCOC3)c(=O)cc1[C@@H](NC(C)=O)CC2 (some centres unmarked)", "Gait Score": 1.20}
{"compound": "COc1cc2c(c(OC)c1OC)-c1ccc(=O)c(OC3CCOC3)cc1[C@@H](NC(C)=O)CC2 (some centres unmarked)", "Gait Score": 1.40}

Kindly review the next compound as well.
Task: Given the compound COc1cc2c(c(OC)c1OC)-c1ccc(OC)c(=O)cc1[C@@H](NC(C)=O)CC2 [colchicine, reference compound] , what is its reported Gait Score?
Result: 1.30
